target: T1, monkey GPC3-His protein (monkey); assay: ELISA, monkey GPC3-His coated; antibody 2.67 nM
T1 construct: Bought protein; also called monkey GPC3 protein
Listed binders paired with reported OD450 nm
Keep it simple and answer with nothing but the number.

Sample answers from the record:
hAb001H2L1 (antibody, human IgG1, V domains shown, Humanized F2.169.2, H2+L1) VH: EVQLVESGGGLVQPGGSLRLSCAASGFSFNTNAMNWVRQAPGKGLEWVGRIRSKSNNYATYYADSVKDRFTISRDDSKSSLYLQMNSLKTEDTAVYYCVRDGYYVLFAYWGQGTLVTVSS VL: DIVMTQTPLSLPVTPGEPASISCRFSQSIVNSNGNTYLEWFLQKPGQSPQLLIYKVSNRFSGVPDRFSGSGSGTDFTLKISRVEAEDVGVYYCFQGSHVPFTFGQGTKLEIK; 2.59
hAb005LH1L1b (antibody, human IgG1, V domains shown, Humanized F3.54.12, H1+L1b) VH: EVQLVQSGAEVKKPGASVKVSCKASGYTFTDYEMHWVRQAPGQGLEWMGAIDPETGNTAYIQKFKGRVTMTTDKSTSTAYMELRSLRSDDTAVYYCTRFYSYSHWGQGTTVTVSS VL: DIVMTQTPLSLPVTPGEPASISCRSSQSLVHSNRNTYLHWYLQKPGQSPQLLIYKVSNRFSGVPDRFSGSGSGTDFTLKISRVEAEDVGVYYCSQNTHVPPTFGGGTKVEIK; 1.11
hAb001H1L1a (antibody, human IgG1, V domains shown, Humanized F2.169.2, H1+L1a) VH: EVQLVESGGGLVQPGGSLRLSCAASGFSFNTNAMNWVRQAPGKGLEWVGRIRSKSNNYATYYADSVKDRFTISRDDSKNSLYLQMNSLKTEDTAVYYCVRDGYYVLFAYWGQGTLVTVSS VL: DIVMTQTPLSLPVTPGEPASISCRFSQSIVNSDGNTYLEWFLQKPGQSPQLLIYKVSNRFSGVPDRFSGSGSGTDFTLKISRVEAEDVGVYYCFQGSHVPFTFGQGTKLEIK; 2.27

hAb001H1aL1 (antibody, human IgG1, V domains shown, Humanized F2.169.2, H1a+L1) VH: EVQLVESGGGLVQPGGSLRLSCAASGFSFNTNAMNWVRQAPGKGLEWVGRIRSKSNNYATYYADSVKGRFTISRDDSKNSLYLQMNSLKTEDTAVYYCVRDGYYVLFAYWGQGTLVTVSS VL: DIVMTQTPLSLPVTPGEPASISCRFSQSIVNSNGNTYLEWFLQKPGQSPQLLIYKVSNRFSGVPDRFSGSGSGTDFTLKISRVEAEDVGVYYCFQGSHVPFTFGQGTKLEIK has a reported OD450 nm of 2.57
